# Read-out: growth arrest and DNA damage 45 (GADD45B), GADD45B (gene 4616)
# test.name: LTEA_HepaRG_GADD45B: Life Technologies and Expression Analysis (LTEA) Assay for growth arrest and DNA damage 45 (GADD45B) using HepaRG (AID 2283461)
# condition.description: mRNA level, 48 h; actives raise or lower the signal
Active and inactive are the calls of the source. The calls were made as follows: active = hit-call score of the fitted dose curve at least 0.9, where 1 is the maximum; inactive = score below 0.9.
Labels: t = active, f = inactive

{"molecule": "NC(=O)c1nc(-c2cccc(-c3cc(F)ccc3OCC(F)(F)C(F)(F)F)c2)n[nH]1", "class.label": "t"}
{"molecule": "CN(C[C@@H](CC[N+]12CCC(C3CCCCC3)(CC1)CC2)c1ccc(Cl)c(Cl)c1)C(=O)c1cc(C(F)(F)F)cc(C(F)(F)F)c1", "class.label": "f"}
{"molecule": "Cc1cc(F)ccc1-c1cc(N2CC[C@@H](O)[C@H]2CO)ncc1N(C)C(=O)C(C)(C)c1cc(C(F)(F)F)cc(C(F)(F)F)c1", "class.label": "t"}
{"molecule": "O=C(Nc1ccc(Cl)cc1)Nc1ccc(Cl)c(Cl)c1", "class.label": "t"}
{"molecule": "CC1(C)NC(=O)N(c2ccc([N+](=O)[O-])c(C(F)(F)F)c2)C1=O", "class.label": "f"}
{"molecule": "CCCCCc1ccc(N)cc1", "class.label": "f"}
{"molecule": "CN1C(=O)CC[C@H]1c1cccnc1", "class.label": "f"}
{"molecule": "CC[C@@H]1C[C@H](N(Cc2cc(C(F)(F)F)cc(C(F)(F)F)c2)C(C)=O)c2cc(C(F)(F)F)ccc2N1C(=O)OC(C)C", "class.label": "f"}
{"molecule": "CCCCCCCCCCCC[N+](C)(C)C", "class.label": "t"}
{"molecule": "c1ccc2n[nH]nc2c1", "class.label": "f"}
{"molecule": "CC(C)(C)c1cc(/C=C2\\SC(N)=NC2=O)cc(C(C)(C)C)c1O", "class.label": "t"}
{"molecule": "O=c1[nH]sc2ccccc12", "class.label": "f"}
{"molecule": "O=C(O)c1ccccc1-n1cc(C(=O)O)c(=O)c2cc(Nc3c(F)cc(F)cc3Cl)c(Cl)cc21", "class.label": "f"}
{"molecule": "Oc1ccccc1", "class.label": "f"}
{"molecule": "Clc1cc(Cl)c2c(c1)N=C1CCCCCN1C2", "class.label": "t"}
{"molecule": "O=C(O)Cn1c(=O)n(Cc2ccc(Br)cc2F)c(=O)c2ccc(Cl)cc21", "class.label": "f"}
{"molecule": "Cc1oc2c(NC(=O)c3c(Cl)cccc3Cl)cccc2c1C(C)(C)O", "class.label": "t"}
{"molecule": "O=C1O[C@H]([C@@H](O)CO)C(O)=C1O", "class.label": "f"}
{"molecule": "Cc1cc2c(cc1C(F)(F)F)N(C(=O)Nc1ccc(Oc3cccnc3C)nc1)CC2", "class.label": "f"}
{"molecule": "CCN(CC)C(=O)c1cc(S(=O)(=O)Cc2ccccc2)c(N2CCC(c3ccccc3)CC2)cc1N(CC)CCN(C)C", "class.label": "f"}
{"molecule": "C[C@]12CC[C@@H]3c4ccc(O)cc4CC[C@H]3[C@@H]1CCC2=O", "class.label": "f"}
{"molecule": "Cc1occc1C(=O)Nc1ccc(C(=O)N2CCC(F)(F)/C(=C\\C(=O)N3CCC(N4CCCCC4)CC3)c3ccccc32)cc1", "class.label": "f"}
{"molecule": "CC(=O)N1CCN(c2ccc(OC[C@H]3CO[C@](Cn4ccnc4)(c4ccc(Cl)cc4Cl)O3)cc2)CC1", "class.label": "f"}
{"molecule": "Cc1ncc(CO)c(CO)c1O", "class.label": "f"}
{"molecule": "OC12N=C(c3ccccc3)SC1Cc1cc(Cl)ccc12 (stereo unspecified)", "class.label": "t"}
{"molecule": "CCN(Cc1cccc(S(=O)(=O)O)c1)c1ccc(C(=C2C=CC(=[N+](CC)Cc3cccc(S(=O)(=O)O)c3)C=C2)c2ccccc2S(=O)(=O)[O-])cc1", "class.label": "f"}
{"molecule": "CCCCCCCCOC(=O)c1cc(O)c(O)c(O)c1", "class.label": "f"}
{"molecule": "CCCCCCCCOc1ccc(C(=O)c2ccccc2)c(O)c1", "class.label": "f"}
{"molecule": "CC(C)(C)c1csc(-c2cc3cc(OCc4ccccc4CC(=O)O)ccc3o2)n1", "class.label": "t"}
{"molecule": "CO[C@H]1/C=C/O[C@@]2(C)Oc3c(C)c(O)c4c(O)c(c(/C=N/N5CCN(C)CC5)c(O)c4c3C2=O)NC(=O)/C(C)=C\\C=C\\[C@H](C)[C@H](O)[C@@H](C)[C@@H](O)[C@@H](C)[C@H](OC(C)=O)[C@@H]1C", "class.label": "f"}
{"molecule": "CCCCCCCCCC(=O)O", "class.label": "f"}
{"molecule": "O=C(OCCCCCCOC(=O)c1ccccc1)c1ccccc1", "class.label": "f"}
{"molecule": "Cc1cn([C@H]2C[C@H](N=[N+]=[N-])[C@@H](CO)O2)c(=O)[nH]c1=O", "class.label": "f"}
{"molecule": "Clc1ccccc1C(c1ccccc1)(c1ccccc1)n1ccnc1", "class.label": "f"}
{"molecule": "O=C=NCCCCCCN=C=O", "class.label": "f"}
{"molecule": "CCCCCCCCN(C)CCCCCCCC", "class.label": "f"}
{"molecule": "COc1ccc2cc(S(=O)(=O)N[C@H](CC(=O)N[C@H](Cc3ccc(CN4[C@H](C)CCC[C@@H]4C)cc3)C(=O)N(C)C(C)C)c3ccc4c(c3)OCO4)ccc2c1", "class.label": "t"}
{"molecule": "O=CCCCC=O", "class.label": "f"}
{"molecule": "CCOC(=O)O[C@H](C)OC(=O)c1ccc2c(c1)cc(C(=O)NC1CCN(C(C)C)CC1)n2Cc1cc(-c2ccc(Cl)s2)on1", "class.label": "f"}
{"molecule": "CC(C)(O)c1ccc(CNC(=O)c2cccnc2Oc2ccc3nonc3c2)cc1", "class.label": "f"}
{"molecule": "CC1=CC(=O)/C(=C(/C)O)C(=O)O1", "class.label": "f"}

###

# Read-out: Human Leukocyte Antigen - DR isotype (HLADR), HLA-DRA (gene 3122)
# test.name: BSK_BE3C_HLADR: BioMAP Diversity Plus: BE3C Assay for Human Leukocyte Antigen - DR isotype (HLADR) Biomarker Activity (AID 2283032)
# condition.description: primary human bronchial epithelial cells; actives raise or lower the signal
Activity calls are given as the source filed them. How the source made its calls: active means hit-call score of the fitted dose curve at least 0.9, where 1 is the maximum; inactive means score below 0.9.

{"molecule": "Cc1ccc(C(C)C)cc1", "outcome": "inactive"}
{"molecule": "C[C@]12CC[C@@H]3c4ccc(O)cc4CC[C@H]3[C@@H]1CCC2=O", "outcome": "inactive"}
{"molecule": "O=C=NCCCCCCN=C=O", "outcome": "inactive"}
{"molecule": "c1ccc2ccccc2c1", "outcome": "inactive"}
{"molecule": "COc1cccc([C@H](O)C2CCN(CCc3ccc(F)cc3)CC2)c1OC", "outcome": "inactive"}
{"molecule": "OC12N=C(c3ccccc3)SC1Cc1cc(Cl)ccc12 (configuration not stated)", "outcome": "inactive"}
{"molecule": "Cc1ncc(CO)c(CO)c1O", "outcome": "inactive"}

###

# test.name: APR_HepG2_CellCycleArrest_72hr: Apredica 72-hour HepG2 Assay for Cell Cycle Arrest (AID 2282914)
# condition.description: high-content imaging, actives raise or lower the signal
Activity calls are given as the source filed them. The calls were made as follows: active = hit-call score of the fitted dose curve at least 0.9, where 1 is the maximum; inactive = score below 0.9.
Outcome codes: active, inactive

{"test.smiles": "Oc1ccc2ccccc2c1", "class.label": "inactive"}
{"test.smiles": "Cc1occc1C(=O)Nc1ccc(C(=O)N2CCC(F)(F)/C(=C\\C(=O)N3CCC(N4CCCCC4)CC3)c3ccccc32)cc1", "class.label": "inactive"}
{"test.smiles": "Cc1ccc(C(C)C)cc1", "class.label": "inactive"}
{"test.smiles": "O=C(O)Cc1cc(I)c(Oc2ccc(O)c(I)c2)c(I)c1", "class.label": "inactive"}
{"test.smiles": "O=C(O)Cn1c(=O)n(Cc2ccc(Br)cc2F)c(=O)c2ccc(Cl)cc21", "class.label": "inactive"}
{"test.smiles": "CCCCCCCCN(C)CCCCCCCC", "class.label": "inactive"}
{"test.smiles": "CCCCCc1ccc(N)cc1", "class.label": "inactive"}
{"test.smiles": "O=C1CCC(C2CCCCC2)CC1", "class.label": "inactive"}
{"test.smiles": "CCCCCCCCOC(=O)c1cc(O)c(O)c(O)c1", "class.label": "active"}
{"test.smiles": "O=c1[nH]sc2ccccc12", "class.label": "active"}
{"test.smiles": "CC/C(=C(/CC)c1ccc(O)cc1)c1ccc(O)cc1", "class.label": "active"}
{"test.smiles": "CCCCCCCCOc1ccc(C(=O)c2ccccc2)c(O)c1", "class.label": "active"}
{"test.smiles": "OCCO", "class.label": "inactive"}
